# studySystem: Melanocyte-stimulating hormone receptor (Homo sapiens, UniProt Q01726)
# Sequence (Q01726 whole entry, looked up): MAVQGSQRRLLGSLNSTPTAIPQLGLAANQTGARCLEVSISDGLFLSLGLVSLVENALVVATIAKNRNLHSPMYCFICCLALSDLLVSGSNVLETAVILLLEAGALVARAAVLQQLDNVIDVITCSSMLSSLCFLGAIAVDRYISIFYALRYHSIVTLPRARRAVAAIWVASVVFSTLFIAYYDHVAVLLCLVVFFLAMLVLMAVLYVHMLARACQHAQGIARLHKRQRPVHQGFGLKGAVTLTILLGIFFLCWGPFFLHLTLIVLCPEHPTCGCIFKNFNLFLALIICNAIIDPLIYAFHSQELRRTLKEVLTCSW
# assayNotes: Agonist activity at human MC1R at 50 uM
# Type: functional
Non-standard residues stand in square brackets, D forms with d. Residues, ends and D or L forms follow the SMILES beside them. *: point of attachment. Ac6c(4-Ph-cis-to-N) = N[C@]1(C(=O)O)CC[C@H](c2ccccc2)CC1; Pentanoyl = CCCCC(=O)*
Readings of Activity for the listed molecules

{"molecule": "CCCC(=O)N[C@]1(C(=O)N[C@H](Cc2ccccc2)C(=O)N[C@@H](CCCN=C(N)N)C(=O)N[C@@H](Cc2c[nH]c3ccccc23)C(=O)NCc2cccc(C(N)=O)c2)CC[C@H](c2ccccc2)CC1", "Activity / %": 50}
{"molecule": "CCCC(=O)NC1(C(=O)N[C@H](Cc2ccccc2)C(=O)N[C@@H](CCCN=C(N)N)C(=O)NC(Cc2ccc3ccccc3c2)C(=O)Nc2ccccc2C(N)=O)CCc2c(Br)cccc2C1 (stereo partly drawn)", "Activity / %": 60}
{"molecule": "CCCCC(=O)N[C@]1(C(=O)N[C@H](Cc2ccccc2)C(=O)N[C@@H](CCCN=C(N)N)C(=O)N[C@@H](Cc2c[nH]c3ccccc23)C(=O)NCC(N)=O)CC[C@H](c2ccccc2)CC1 (Pentanoyl-[Ac6c(4-Ph-cis-to-N)][dF]RWG-NH2)", "Activity / %": 25}
{"molecule": "CCCC(=O)N[C@]1(C(=O)N[C@H](Cc2ccccc2)C(=O)N[C@@H](CCCN=C(N)N)C(=O)N[C@@H](Cc2c[nH]c3ccccc23)C(=O)N[C@@H](C)C(N)=O)CC[C@H](c2ccccc2)CC1", "Activity / %": 25}
{"molecule": "CCCCC(=O)N[C@]1(C(=O)N[C@H](Cc2ccccc2)C(=O)N[C@@H](CCCN=C(N)N)C(=O)NC(Cc2ccc3ccccc3c2)C(=O)NCC(N)=O)CC[C@H](c2ccccc2)CC1 (stereo partly drawn)", "Activity / %": 60}
{"molecule": "CCCC(=O)N[C@]1(C(=O)N[C@H](Cc2ccccc2)C(=O)N[C@@H](CCCN=C(N)N)C(=O)N[C@@H](Cc2c[nH]c3ccccc23)C(=O)NCCC(N)=O)CC[C@H](c2ccccc2)CC1", "Activity / %": 50}
{"molecule": "CCCCNC(=O)N[C@]1(C(=O)N[C@H](Cc2ccccc2)C(=O)N[C@@H](CCCN=C(N)N)C(=O)N[C@@H](Cc2c[nH]c3ccccc23)C(=O)N[C@@H](C)C(N)=O)CC[C@H](c2ccccc2)CC1", "Activity / %": 25}
{"molecule": "CCCCNC(=O)N[C@]1(C(=O)N[C@H](Cc2ccccc2)C(=O)N[C@@H](CCCN=C(N)N)C(=O)N[C@@H](Cc2c[nH]c3ccccc23)C(=O)NCCC(N)=O)CC[C@H](c2ccccc2)CC1", "Activity / %": 50}
